Origin of the recorded values: patent US10294202B2

Tested on: foxtail, giant
Test: Test C pre-/postemergence herbicide test
Type: in vivo, Setaria faberii
Conditions: Preemergence, 31 g ai/ha; scale 0 to 100, 0 is no effect and 100 is complete control
From the text: […]
For each of the compounds below, state its Foxtail, Giant plant response rating.

Consider the compound O=C1NCC(c2ccccc2)C1C(=O)Nc1ccccc1F (racemic) and give its measured Foxtail, Giant plant response rating.
0

Field request: Foxtail, Giant plant response rating | item: O=C1NCC(c2cccc(OC(F)F)c2)C1C(=O)Nc1ccccc1F (stereo not drawn)
70

Record request: Foxtail, Giant plant response rating value, item O=C1NCC(c2cccc(OC(F)(F)F)c2)C1C(=O)Nc1cccc(F)c1F (stereo not drawn)
85

GET /values?readout=Foxtail, Giant plant response rating&item= O=C1NCC(c2ccc(C(F)(F)F)nc2)C1C(=O)Nc1cccc(F)c1F (racemic)
65

Entry under review: O=C(Nc1ccccc1F)C1C(=S)NCC1c1cccc(C(F)(F)F)c1 (stereo not drawn) . Reported Foxtail, Giant plant response rating?
80

Given O=C1NCC(c2cccc(Br)c2)C1C(=O)Nc1ccccc1F (stereo not drawn) , state its recorded Foxtail, Giant plant response rating.
65

Look up Foxtail, Giant plant response rating for this compound: O=C1NCC(c2ccc(F)c(C(F)(F)F)c2)C1C(=O)Nc1ccccc1F (racemic)
90

What value of measured Foxtail, Giant plant response rating is listed for O=C1NCC(c2cccc(C(F)F)c2)C1C(=O)Nc1cccc(F)c1F (racemic) ?
0

Dear colleague, I am looking for the recorded Foxtail, Giant plant response rating of the following compound: O=C1NCC(c2ccc(C(F)(F)F)nc2)C1C(=O)Nc1ccccc1F (racemic)
20

* * *

Tested on: ragweed
Experiment: Test A pre-/postemergence herbicide test
Type: in vivo, Ambrosia elatior
Settings: Postemergence, 125 g ai/ha; 0 to 100 scale, 0 no effect, 100 complete control
Description: […]
Recorded metric: Plant response rating, Ragweed
No unit in the answer, only the number.

Given the entry O=C1NCC(c2cccc(OC(F)(F)C(F)F)c2)C1C(=O)Nc1ccccc1F (racemic) , report its measured Plant response rating, Ragweed.
0

Report Plant response rating, Ragweed for Cc1ccc(C2CNC(=O)C2C(=O)Nc2ccccc2F)cc1F (racemic) please.
0

Looking for the measured Plant response rating, Ragweed of Cc1ccc(C2CNC(=O)C2C(=O)Nc2ccccc2Cl)cc1 (racemic) , can you help?
40

Requested field: Plant response rating, Ragweed. Item: Cc1ccc(C2CNC(=O)C2C(=O)Nc2cccc(F)c2F)cc1 (racemic)
60

Value lookup for Plant response rating, Ragweed; key = Cc1ccc(C2CNC(=O)C2C(=O)Nc2ccccc2Cl)cc1F (racemic)
0

Endpoint output: Plant response rating, Ragweed of O=C1NCC(c2cccc(C(F)(F)F)c2)C1C(=O)Nc1ncc(Cl)s1 (racemic) . Value?
0

* * *

System: crabgrass, large
Assay: Test A pre-/postemergence herbicide test
Type: in vivo, Digitaria sanguinalis
Settings: preemergence; 500 g ai/ha; 0 to 100 scale, 0 is no effect and 100 is complete control
Recorded metric: Plant response rating, Crabgrass, Large
Kindly provide the number alone.

Dear colleague, I am looking for the recorded Plant response rating, Crabgrass, Large of the following compound: O=C1NCC(c2ccc(OC(F)(F)F)cc2)C1C(=O)Nc1cccc(F)c1F (racemic)
90

For the compound O=C1NCC(c2ccc(C(F)(F)F)c(F)c2)C1C(=O)Nc1ccccc1F (racemic) , what Plant response rating, Crabgrass, Large is on record?
90

Dear colleague, I am looking for the recorded Plant response rating, Crabgrass, Large of the following compound: O=C1NCC(c2ccc(C(F)(F)F)nc2)C1C(=O)Nc1ccccc1F (racemic)
90

Please report the recorded Plant response rating, Crabgrass, Large for O=C1NCC(c2ccc(Cl)c(C(F)(F)F)c2)C1C(=O)Nc1cccc(F)c1F (racemic) .
90

Which Plant response rating, Crabgrass, Large value belongs to O=C1NCC(c2ccc(C(F)(F)F)nc2)C1C(=O)Nc1cccc(F)c1F (racemic) ?
100

# get_value(readout='Plant response rating, Crabgrass, Large', item= O=C1NCC(c2ccc(C(F)(F)F)c(Cl)c2)C1C(=O)Nc1ccccc1F (racemic) )
90

* * *

Assign Plant response rating, Waterhemp to each entry below.
System: waterhemp
Assay: Test C pre-/postemergence herbicide test
Format: in vivo, Amaranthus rudis
Settings: Postemergence; 250 g ai/ha; scale 0 to 100 (0 no effect, 100 complete control)
From the text: […]

Report Plant response rating, Waterhemp for O=C1NCC(c2cccc(C(F)(F)F)c2)C1C(=O)Nc1cccc(Cl)c1F (stereo not drawn) please.
55

Form field: reported Plant response rating, Waterhemp of O=C1NCC(c2cc(F)cc(F)c2)C1C(=O)Nc1cccc(F)c1F (racemic)
15

Please look up its Plant response rating, Waterhemp: O=C1NCC(c2cccc(OC(F)F)c2)C1C(=O)Nc1cccc(F)c1F (stereo not drawn)
40

Consider the molecule shown here: CN1CC(c2ccc(F)c(F)c2)C(C(=O)Nc2ccccc2F)C1=O (stereo not drawn) What is its recorded Plant response rating, Waterhemp?
25

Please look up its Plant response rating, Waterhemp: O=C1NCC(c2cccc(C(F)(F)F)c2)C1C(=O)Nc1ccccc1Cl (stereo not drawn)
20

Bench note: what Plant response rating, Waterhemp did O=C1NCC(c2cccc(Cl)c2)C1C(=O)Nc1cccc(F)c1F (racemic) show?
20

* * *

System: ragweed
Test: Test A pre-/postemergence herbicide test
Type: in vivo, Ambrosia elatior
Settings: preemergence, 500 g ai/ha; 0 to 100 scale
From the text: […]
Recorded metric: Plant response rating, Ragweed
No unit in the answer, please; the number alone is enough.

Can you share its Plant response rating, Ragweed? I mean this molecule: O=C1NCC(c2cccc(OC(F)(F)C(F)F)c2)C1C(=O)Nc1ccccc1F (racemic) [Compound 121]
70

May I ask what Plant response rating, Ragweed has been recorded for O=C1NCC(c2ccc(F)cc2)C1C(=O)Nc1cccc(F)c1F (racemic) [Compound 119] ?
80

If you can, please state the reported Plant response rating, Ragweed value of Cc1cc(C2CNC(=O)C2C(=O)Nc2ccccc2Cl)ccc1F (racemic) [Compound 143] .
0

Need Plant response rating, Ragweed, item O=C1NCC(c2cccc(C(F)(F)F)c2)C1C(=O)Nc1ncc(Cl)s1 (racemic) [Compound 113]
0

Request the reported Plant response rating, Ragweed associated with O=C1NCC(c2cccc(C(F)(F)F)c2)C1C(=O)Nc1nncs1 (racemic) [Compound 111]
0

Consider the molecule shown here: Cc1ccc(C2CNC(=O)C2C(=O)Nc2ccccc2Cl)cc1F (racemic) [Compound 148] What is its recorded Plant response rating, Ragweed?
0

* * *

Answer each item with its documented Plant response rating, Wheat.
System: wheat
Test: Test A pre-/postemergence herbicide test
Format: in vivo, Triticum aestivum
Conditions: Postemergence, 500 g ai/ha; 0 to 100 scale (0 no effect, 100 complete control)
No unit in the answer, please; the number alone is enough.

Given O=C1NCC(c2cccc(Oc3ccccc3)c2)C1C(=O)Nc1ccccc1Cl (centres unmarked) [Compound 334] , state its recorded Plant response rating, Wheat.
0

For the compound O=C1NCC(c2ccc(F)c(F)c2)C1C(=O)Nc1cccc(F)c1 (racemic) [Compound 12] , what Plant response rating, Wheat is on record?
20

Which value of Plant response rating, Wheat has been reported for CN1CC(c2ccc(F)cc2)C(C(=O)Nc2cccc(F)c2F)C1=O (centres unmarked) [Compound 271] in the records?
80

Entry under review: O=C1NCC(c2ccc(F)c(C(F)(F)F)c2)C1C(=O)Nc1ccccc1C(F)(F)F (racemic) [Compound 78] . Reported Plant response rating, Wheat?
50

Entry under review: O=C1NCC(c2ccc(Cl)nc2)C1C(=O)Nc1ccccc1C(F)(F)F (centres unmarked) [Compound 42] . Reported Plant response rating, Wheat?
0

# input compound: O=C1NCC(c2cccc(Oc3ccccc3)c2)C1C(=O)Nc1ccccc1F (centres unmarked) [Compound 330] ; wanted: its Plant response rating, Wheat
0

Value lookup for Plant response rating, Wheat; key = O=C1NCC(c2cccc(OC(F)F)c2)C1C(=O)Nc1cccc(F)c1F (centres unmarked) [Compound 324]
80

Which Plant response rating, Wheat is listed for O=C1NCC(c2cccc(C(F)(F)F)c2)C1C(=O)Nc1ccc(F)c(F)c1F (centres unmarked) [Compound 315] ?
70

* * *

Test system: johnsongrass
Test: Test C pre-/postemergence herbicide test
Assay type: in vivo, Sorghum halepense
Conditions: Postemergence, 62 g ai/ha; scale 0 (no effect) to 100 (complete control)
Recorded metric: Plant response rating, Johnsongrass
Give the value as a plain number.

// Plant response rating, Johnsongrass lookup, key: O=C1NCC(c2ccc(C(F)(F)F)cc2)C1C(=O)Nc1ccc(F)c(F)c1F (stereo not drawn) [Compound 232]
20

Report Plant response rating, Johnsongrass for O=C1NCC(c2cccc(OC(F)F)c2)C1C(=O)Nc1ccc(F)c(F)c1F (stereo not drawn) [Compound 325] please.
0

Which Plant response rating, Johnsongrass value belongs to O=C1NCC(c2cccc(OC(F)F)c2)C1C(=O)Nc1cccc(F)c1F (stereo not drawn) [Compound 324] ?
0

Item under review: O=C1NCC(c2cc(F)cc(F)c2)C1C(=O)Nc1cccc(F)c1F (racemic) [Compound 279] . Reported Plant response rating, Johnsongrass?
0

Which Plant response rating, Johnsongrass value belongs to CN1CC(c2ccc(C(F)(F)F)cc2)C(C(=O)Nc2ccccc2F)C1=O (stereo not drawn) [Compound 304] ?
0

Quick check: Plant response rating, Johnsongrass of O=C1NCC(c2cccc(C(F)(F)F)c2)C1C(=O)Nc1ccc(F)cc1F (racemic) [Compound 207] ?
0
